normalized growth by entry:
TEST_NAME: chemical genetic growth profiling, strain panel (AID 1159580);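 also: tested at 20 µM; growth read once vehicle control cultures reached saturation at 30 °C; 1 = growth at the plate median or of vehicle wells; lower values mean less growth of the strain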
TEST_PARAMETERS: S. cerevisiae deletion strains, growth OD, locus YLR027C, strain aat2, stronger effect = lower value
About 2,000 (36%) of roughly 5,500 compounds were called active. Roughly 18% stayed inconclusive and do not appear here. Some of the results follow.
Write no unit; give the number alone.

>  <MOLECULE>
CCCCOc1ccc(OCCCN2CCOCC2)cc1

>  <READOUT_NUMBER>
0.977

$$$$
>  <MOLECULE>
CC(C)[N+](C)(CCOC(=O)C1c2ccccc2Oc2ccccc21)C(C)C

>  <READOUT_NUMBER>
1

$$$$
>  <MOLECULE>
CC(C)(C)CC(C)(C)c1ccc(OCCOCC[N+](C)(C)Cc2ccccc2)cc1

>  <READOUT_NUMBER>
0.0617

$$$$

Name the reported normalized growth value associated with the molecule CC(C)[C@H](N)C(=O)OCCOCn1cnc2c(=O)[nH]c(N)nc21
1.01

One more molecule: c1ccc(CC2=NCCN2)cc1
1.02

One more molecule: COc1ccc(C[C@H]2NC[C@H](O)[C@H]2OC(C)=O)cc1
0.659
